From: ChEMBL document CHEMBL1201862

Test system: DLD-1
Experiment: NCI tumour cell line growth inhibition, 48 h
The source made the active and inactive calls. No stated cut-off is given here; in the data, active = GI50 up to about 1.1 µM and inactive = higher.
Returns: one label drawn from active, inactive

Query :: Hey, what did the test say about Cc1cccc(C)c1N1C(=O)C(=O)C(c2nc3ccccc3s2)/C(=N/NC(=O)c2ccccc2O)C1=O (stereo not drawn) ?
Result :: inactive

Query :: Hey, what did the test say about `COc1ccc(N2C(=O)/C(=C(\C)c3cc4ccccc4oc3=O)N=C2c2cc([N+](=O)[O-])ccc2Cl)cc1` ?
Result :: inactive

Query :: Hey, what did the test say about `COc1ccc(/N=N/C(C(=O)c2ccccc2)C(=O)c2ccccc2)cc1` ?
Result :: inactive

Query :: Hey, what did the test say about Clc1cccc(N2CCN(CCCN3CCc4c([nH]c5ccccc45)C3c3cccnc3)CC2)c1 (stereo not drawn) ?
Result :: inactive

Query :: Hey, what did the test say about Cc1c(C)c2ccc(OC(C)C(=O)O)cc2oc1=O (stereo not drawn) ?
Result :: inactive

Query :: Hey, what did the test say about `CC(=O)OCCOCNC(=S)N/N=C/c1ccc([N+](=O)[O-])s1` ?
Result :: inactive

Query :: Hey, what did the test say about C/C=C/C[C@@H](C)[C@@H](O)[C@H]1C(=O)N[C@@H](CC)C(=O)N(C)CC(=O)N(C)[C@@H](CC(C)C)C(=O)N[C@@H](C(C)C)C(=O)N(C)[C@@H](CC(C)C)C(=O)N[C@@H](C)C(=O)N[C@H](C)C(=O)N(C)[C@@H](CC(C)C)C(=O)N(C)[C@@H](CC(C)C)C(=O)N(C)[C@@H](C(C)C)C(=O)N1C [CYCLOSPORINE] ?
Result :: inactive

Query :: Hey, what did the test say about C/C=C1\C[C@@H]2C(OC)Nc3cc(O)c(OC)cc3C(=O)N2C1 (stereo partly drawn) ?
Result :: active

Query :: Hey, what did the test say about `Nc1ccc(/N=N/c2ccc(-c3ccc(/N=N/c4c(S(=O)(=O)O)cc5cc(S(=O)(=O)O)c(/N=N/c6ccc([N+](=O)[O-])cc6)c(N)c5c4O)cc3)cc2)c2cc(S(=O)(=O)O)ccc12` ?
Result :: inactive

Query :: Hey, what did the test say about `CC(=O)Nc1ccc(SC#N)c2c(NC(C)=O)cccc12` ?
Result :: inactive

Query :: Hey, what did the test say about COc1ccc(C2COc3cc(OC(C)=O)c(OC(C)=O)cc3C2)cc1 (stereo not drawn) ?
Result :: inactive

Query :: Hey, what did the test say about `O=C(O)Cc1ccc2c(c1O)C(=O)c1c(ccc(CC(=O)O)c1O)C2=O` ?
Result :: inactive

Query :: Hey, what did the test say about `O=Cc1[nH]c2ccccc2c1Br` ?
Result :: inactive

Query :: Hey, what did the test say about `O=C1C=CC(=O)C12CCc1ccccc12` ?
Result :: inactive

Query :: Hey, what did the test say about `O=C(O)C12CC3CC(CC(F)(C3)C1)C2` ?
Result :: inactive

Query :: Hey, what did the test say about Cc1ccc(C)c(N2C(=O)C(=O)C(c3nc4ccccc4s3)/C(=N/N)C2=O)c1 (stereo not drawn) ?
Result :: inactive

Query :: Hey, what did the test say about COc1ccccc1OCC(COC(=O)Nc1ccccc1)OC(=O)Nc1ccccc1 (stereo not drawn) ?
Result :: inactive

Query :: Hey, what did the test say about CCC1(CN(C)C)CC/C(=C\c2ccc(OC)cc2)C1=O (stereo not drawn) ?
Result :: inactive

Query :: Hey, what did the test say about `O=C1C=C(c2c(O)ccc3ccccc23)c2ccccc2C1=O` ?
Result :: inactive

Query :: Hey, what did the test say about `Cc1c(C)c(CC(=O)N2CC2)c(C)c(C)c1CC(=O)N1CC1` ?
Result :: inactive

Query :: Hey, what did the test say about `C=C1C(=O)[C@@]23CC[C@H]4[C@@](C)(CCC[C@@]4(C)C(=O)OC)[C@@H]2CC[C@]1(O)C3` ?
Result :: active

Query :: Hey, what did the test say about CC1=Nc2c(O)nc(S)nc2NC(c2ccc(Cl)c(Cl)c2)C1 (stereo not drawn) ?
Result :: inactive

Query :: Hey, what did the test say about `O=C(/C=C/c1ccc(OCC(=O)N2CCN(c3ccccc3)CC2)cc1)c1ccccc1` ?
Result :: inactive
